EXPERIMENT DESCRIPTION: Antiproliferative activity against human RKOp27 cells after 48 hrs
Assay type: functional, cell-based
CONDITION DESCRIPTION: RKOp27, 48 h
Parameter: EC50. Scope: all listed entries.

| MOLECULE | EC50 |
| --- | --- |
| O=C1c2c(O)ccc(O)c2C(=O)c2c(NCCNCCO)ccc(NCCNCCO)c21 [MITOXANTRONE] | 90 nM |
| CN(C)CCn1nc2c3c(c(NCCOS(C)(=O)=O)ccc31)C(=O)c1ccncc1-2 | 170 nM |
| CSCCCNc1ccc2c3c(nn2CCN(C)C)-c2cnccc2C(=O)c13 | 2940 nM |
| CN(C)CCn1nc2c3c(c(N(C)C)ccc31)C(=O)c1ccncc1-2 | 2630 nM |
| CN(C)CCn1nc2c3c(c(NCCSCCO)ccc31)C(=O)c1ccncc1-2 | 550 nM |
